Exercise: state measured SPOT peptide array binding signal intensity for each of the binders provided.
- assayed system: AgBbc1
- experimental details: SPOT peptide array binding signal intensity (averaged, normalized) (arbitrary units (background-subtracted, floor 0; scale differs between SH3 domains)); higher = stronger binding of the SH3 domain to the peptide
Form field (numeric): enter value without unit.

Task: Give the measured SPOT peptide array binding signal intensity of RKRRTHLRLPLIRSN .
Result: 105

Task: Give the measured SPOT peptide array binding signal intensity of PHNPSPFFPPPDFND .
Result: 3

Task: Give the measured SPOT peptide array binding signal intensity of SSSSTPPTLPPRRIE .
Result: 673

Task: Give the measured SPOT peptide array binding signal intensity of NLPKRKPPKLQGPFS .
Result: 7.75

Hello, the source for this data is the supplement of paper PMC4466140, in case you need it.
